- System: OVCAR-3
- PROTOCOL: NCI tumour cell line growth inhibition, 48 h
Active and inactive are the calls of the source. Rule as the data show it: active = GI50 up to about 1.1 µM and inactive = higher.
Form entry, call: pick from active, inactive

COC1/C=C\C=C(/C)C(=O)NC2=CC(=O)C(O)=C(CC(C)CC(OC)C(O)C(C)/C=C(\C)C1OC(N)=O)C2=O (stereo not given) | active
O=C(NCCCCl)c1c(O)c2ccccc2[nH]c1=O | inactive
CC(=O)OC(C(=O)O)C(OC(C)=O)C(OC(C)=O)C(OC(C)=O)C(=O)O (stereo not given) | inactive

Answer briefly: the call reported for COC(=O)C1CCC(=O)N1/C(C)=N/NC(=O)Nc1ccc(Cl)c(Cl)c1 (stereo not given) in this assay.
inactive

Answer briefly: the call reported for CC1(C)Cc2c(sc3[nH]c(=S)[nH]c(=S)c23)CS1 in this assay.
inactive

Answer briefly: the call reported for C=C(C)C1CCC2(C)CC1c1c(c(C)cc3c1[nH]c1ccccc13)O2 (stereo not given) in this assay.
inactive

Answer briefly: the call reported for Cn1cnc([N+](=O)[O-])c1Sc1nc2cccnc2[nH]1 in this assay.
inactive

Answer briefly: the call reported for CCN(CC)Cc1nc(C2CCC([N+](=O)[O-])O2)no1 (stereo not given) in this assay.
inactive

Answer briefly: the call reported for COC1C=CC23c4cc5c(cc4C(O)OC2CN(C)C3C1)OCO5 (stereo not given) in this assay.
inactive

All figures here come from ChEMBL document CHEMBL1201862.
